- measurement.notes: NOD1 signaling inhibitors, primary screen, cell-based, luminescence, uHTS (AID 1578);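 further: HEK-293T reporter cells stimulated with the NOD1 agonist gamma-tri-DAP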
- cond: NOD1-driven NF-kB luciferase reporter cells, at 4 µM
Hit rate of the full screen: of about 290,000 compounds, about 3,000 (1%) were called active. No stated cut-off is given here; in the data, active means inhibition mostly above about 36% (no sharp cut-off); inactive means mostly below about 34%. The entries come from a sample that favours actives as a whole.
Could you please pick one outcome from this set? true (1) = active, false (0) = inactive

Look over these answered cases.
{"columns": ["compound", "class"],
 "data": [
  ["COC(=O)c1c(C)oc(C)c1S(=O)(=O)NCc1ccc(OC)cc1", "false (0)"],
  ["CCn1c(O)c(C=Nc2ccccc2)sc1=O", "false (0)"],
  ["O=[N+]([O-])c1ccc(N=NN(CCO)CCO)cc1", "false (0)"],
  ["COc1ccc(C(=O)NNC2=Nc3cccc4cccc2c34)cc1", "false (0)"],
  ["O=C(NC1CCSC1=O)c1ccccc1 (stereo not given)", "false (0)"]
]}

What classification did `Cn1c(O)c(C=Nc2ccc(Br)cc2)sc1=O` end up with in this test?
true (1)

These measurements were taken from PubChem BioAssay AID1578.
